- CONDITION_SET: in n-propyl acetate, 313.15 K
REPORTED_METRIC: solubility (mole fraction)
Format: numeric value only, no unit, no commentary.

Prompt: What value of measured solubility (mole fraction) is listed for CC1=C(O)C(=O)C(C)O1 (stereo unspecified) ?
Response: 0.386

* * *

- CONDITION_SET: in acetone, 298.15 K
REPORTED_METRIC: solubility (mole fraction)
Format: numeric value only, no unit, no commentary.

Prompt: What value of measured solubility (mole fraction) is listed for CC1=C(O)C(=O)C(C)O1 (stereo unspecified) ?
Response: 0.244

* * *

- CONDITION_SET: in dichloromethane, 308.15 K
REPORTED_METRIC: solubility (mole fraction)
Format: numeric value only, no unit, no commentary.

Prompt: What value of measured solubility (mole fraction) is listed for CC1=C(O)C(=O)C(C)O1 (stereo unspecified) ?
Response: 0.337

The reported numbers originate from BigSolDB 2.1.
